Each recorded value in this set is attributed to FireProtDB (doi:10.1021/bi9621829).

heat capacity change of unfolding listing for selected variants.
B1: Lysozyme C, P61626 (parent)
chain: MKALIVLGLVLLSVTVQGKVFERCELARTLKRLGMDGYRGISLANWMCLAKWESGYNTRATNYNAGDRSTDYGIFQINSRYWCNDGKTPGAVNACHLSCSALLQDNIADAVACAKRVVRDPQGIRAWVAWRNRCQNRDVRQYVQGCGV

Variants of: B1
TEST CONDITIONS: Homo sapiens; pH 2.7; 64.9 °C; Thermal; DSC; glycine 0.05 M; reversible: yes; structure 1LZ1; whole UniProt chain shown
State the answer as a number, implicitly in kcal/mol/K.

Example entries begin here.
> print(dat)
   mutation.annotation                           endpoint   val
1                V143A  heat capacity change of unfolding  1.29
2                V118A  heat capacity change of unfolding     1
3                 V92A  heat capacity change of unfolding  1.48
4                V128A  heat capacity change of unfolding  1.24
5                V117A  heat capacity change of unfolding  1.58
6                V139A  heat capacity change of unfolding  1.53
7                 V20A  heat capacity change of unfolding  1.56

Given "V148A" , state its recorded heat capacity change of unfolding. 1.51
